The reported numbers originate from patent US20230242675A1.

For each entry below, report its koff value.
measuredTarget: human PD-L1/His fusion protein (human, UniProt Q9NZQ7 19-239)
Sequence (Q9NZQ7 19-239 limits assumed): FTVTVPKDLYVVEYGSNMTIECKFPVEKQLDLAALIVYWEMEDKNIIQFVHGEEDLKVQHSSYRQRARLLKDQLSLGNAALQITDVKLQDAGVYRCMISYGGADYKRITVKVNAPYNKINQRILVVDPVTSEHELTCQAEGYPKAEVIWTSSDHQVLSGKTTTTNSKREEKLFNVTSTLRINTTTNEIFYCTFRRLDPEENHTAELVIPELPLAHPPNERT
assayProtocol: BLI Octet RED96, antibody on AHC sensor, single conc. PD-L1/His; test group 3
Answers are plain numbers, in s⁻¹.

Would you please look over these solved cases?
HuEM0005-87-15 (antibody, human IgG1, V domains shown) VH: EVQLVQSGAEVKKPGASVKVSCKASGYSFTDYYINWVKQAPGQGLEWIGETIPNTGGTTYNQKFKAKATLTRDKSTSTAYMELKSLRSEDTAVYYCARYQSGSPFAYWGQGTTVTVSS VL: EIVMTQSPATLSVSPGERATLSCKASQNVGTAVAWYQQKPGQAPRLLIYSASNRYTGVPARFSGSGSGTEFTLTISSLQSEDFAVYYCQQHYSTPYTFGGGTKLEIK	0.00129
HuEM0005-87-17 (antibody, human IgG1, V domains shown) VH: EVQLVQSGAEVKKPGASVKVSCKASGYTFTDYYINWVRQAPGQGLEWMGETIPNTGGTTYNQKFKARVTLTVDTSTSTVYMELSSLRSEDTAVYYCARYQSGSPFAYWGQGTTVTVSS VL: EIVMTQSPATLSVSPGERATLSCKASQNVGTAVAWYQQKPGQAPRLLIYSASNRYTGVPDRFTGSGSGTEFTLTISSLQSEDFAVYYCQQHYSTPYTFGGGTKLEIK	0.000888
HuEM0005-90-13 (antibody, human IgG1, V domains shown) VH: EVQLVQSGAEVKKPGASVKVSCKASGYTFTSHSINWVRQATGQGLEWMGYMYIGNGYTEYNEKFKGRVTLTSNTSISTAYMELSSLRSEDTAVYYCAKITPVVAPYVMDYWGQGTSVTVSS VL: DIQMTQSPSFLSASVGDRVTITCKASQDVGTAVAWYQQKPGKAPKLLIYWASTRHTGVPDRFTGSGSGTEFTLTISSLQPEDFATYYCQQYSSYPYTFGQGTKLEIK	0.000439
HuEM0005-90-15 (antibody, human IgG1, V domains shown) VH: EVQLVQSGAEVKKPGASVKVSCKTSGYTFTSHSINWVRQATGQGLEWMGYMYIGNGYTEYNEKFKGRVTMTSNTSISTAYMELSSLRSEDTAVYYCAKITPVVAPYVMDYWGQGTSVTVSS VL: DIQMTQSPSFLSASVGDRVTITCKASQDVGTAVAWYQQKPGKAPKLLIYWASTRHTGVPDRFTGSGSGTEFTLTISSLQPEDFATYYCQQYSSYPYTFGQGTKLEIK	0.000499
HuEM0005-90-18 (antibody, human IgG1, V domains shown) VH: EVQLVQSGAEVKKPGASVKVSCKASGYTFTSHSINWVRQATGQGLEWIGYMYIGNGYTEYNEKFKGRATLTSNTSISTAYMELSSLRSEDTAVYYCAKITPVVAPYVMDYWGQGTSVTVSS VL: DIVMTQSPSFLSASVGDRVTITCKASQDVGTAVAWYQQKPGKAPKLLIYWASTRHTGVPDRFTGSGSGTDFTLTISSLQPEDFATYYCQQYSSYPYTFGQGTKLEIK	0.000334
EM0005-mAb90c (antibody, human IgG1, kappa, V domains shown, Chimeric full-length IgG1; also called EM0005-90c) VH: QVQLKQSGAELVRPGSSVKMSCKTSGYTFTSHSINWVKQRPGQGLEWIGYMYIGNGYTEYNEKFKGKATLTSDTSSTTAYMQLSSLTSEDSAIYFCAKITPVVAPYVMDYWGQGTSVTVSS VL: DIVMTQTHKFMSTSVGDRVSITCKASQDVGTAVAWYQQKPGQSPKLLIYWASTRHTGVPDRFTGSGSGTDFTLTISNVQSEDLADYFCQQYSSYPYTFGGGTKLELKR	0.000382
EM0005-mAb87c (antibody, human IgG1, kappa, V domains shown, Chimeric full-length IgG1; also called EM0005-87c) VH: EVQLQQSGPELVKPGASVKISCKASGYSFTDYYINWVKQSPEKSLEWIGETIPNTGGTTYNQKFKAKATLTVDKSSSTAYMQLKSLTSEDSAVYYCARYQSGSPFAYWGQGTPVTVSS VL: DIVMTQSQKFMSTTVGDRVSITCKASQNVGTAVAWYQQKPGQSPKLLIYSASNRYTGVPDRFTGSGSGTDFTLTISNMQSEDLADYFCQQHYSTPYTFGGGTKLEIKR	0.00135
HuEM0005-87-18 (antibody, human IgG1, V domains shown) VH: EVQLVQSGAEVKKPGASVKVSCKASGYTFTDYYINWVRQAPGQGLEWIGETIPNTGGTTYNQKFKARVTLTVDKSTSTVYMELSSLRSEDTAVYYCARYQSGSPFAYWGQGTTVTVSS VL: EIVMTQSPATLSVSPGERATLSCKASQNVGTAVAWYQQKPGQAPRLLIYSASNRYTGVPDRFTGSGSGTEFTLTISSLQSEDFAVYYCQQHYSTPYTFGGGTKLEIK	0.00101
HuEM0005-90-17 (antibody, human IgG1, V domains shown) VH: EVQLVQSGAEVKKPGASVKVSCKASGYTFTSHSINWVRQATGQGLEWMGYMYIGNGYTEYNEKFKGRVTLTSNTSISTAYMELSSLRSEDTAVYYCAKITPVVAPYVMDYWGQGTSVTVSS VL: DIVMTQSPSFLSASVGDRVTITCKASQDVGTAVAWYQQKPGKAPKLLIYWASTRHTGVPDRFTGSGSGTDFTLTISSLQPEDFATYYCQQYSSYPYTFGQGTKLEIK	0.000405
HuEM0005-90-16 (antibody, human IgG1, V domains shown) VH: EVQLVQSGAEVKKPGASVKVSCKTSGYTFTSHSINWVRQATGQGLEWIGYMYIGNGYTEYNEKFKGRATLTSNTSISTAYMELSSLRSEDTAVYYCAKITPVVAPYVMDYWGQGTSVTVSS VL: DIQMTQSPSFLSASVGDRVTITCKASQDVGTAVAWYQQKPGKAPKLLIYWASTRHTGVPDRFTGSGSGTEFTLTISSLQPEDFATYYCQQYSSYPYTFGQGTKLEIK	0.000387

(Q) Name the reported koff value associated with the binder HuEM0005-87-14 (antibody, human IgG1, V domains shown) VH: EVQLVQSGAEVKKPGASVKVSCKASGYSFTDYYINWVRQAPGQGLEWIGETIPNTGGTTYNQKFKAKATLTVDKSTSTAYMELSSLRSEDTAVYYCARYQSGSPFAYWGQGTTVTVSS VL: EIVMTQSPATLSVSPGERATLSCKASQNVGTAVAWYQQKPGQAPRLLIYSASNRYTGVPARFSGSGSGTEFTLTISSLQSEDFAVYYCQQHYSTPYTFGGGTKLEIK
(A) 0.00108
